Each record here notes measured IC50.
molecular target: PSMA-expressing C4-2 cells (Homo sapiens); construct: PSMA-expressing C4-2 cells (ATCC, Cat. No. CRL-3314) were cultured in RPMI-1640; host or cells: C4-2 cells; experiment: FACS binding assay (competition with 50 nM PSM-0183); conditions: FACS binding, PSMA-expressing C4-2 cells; pIC50 category; read-out: pIC50 [C4-2] CAT (converted)
Sequence (Q04609 whole entry): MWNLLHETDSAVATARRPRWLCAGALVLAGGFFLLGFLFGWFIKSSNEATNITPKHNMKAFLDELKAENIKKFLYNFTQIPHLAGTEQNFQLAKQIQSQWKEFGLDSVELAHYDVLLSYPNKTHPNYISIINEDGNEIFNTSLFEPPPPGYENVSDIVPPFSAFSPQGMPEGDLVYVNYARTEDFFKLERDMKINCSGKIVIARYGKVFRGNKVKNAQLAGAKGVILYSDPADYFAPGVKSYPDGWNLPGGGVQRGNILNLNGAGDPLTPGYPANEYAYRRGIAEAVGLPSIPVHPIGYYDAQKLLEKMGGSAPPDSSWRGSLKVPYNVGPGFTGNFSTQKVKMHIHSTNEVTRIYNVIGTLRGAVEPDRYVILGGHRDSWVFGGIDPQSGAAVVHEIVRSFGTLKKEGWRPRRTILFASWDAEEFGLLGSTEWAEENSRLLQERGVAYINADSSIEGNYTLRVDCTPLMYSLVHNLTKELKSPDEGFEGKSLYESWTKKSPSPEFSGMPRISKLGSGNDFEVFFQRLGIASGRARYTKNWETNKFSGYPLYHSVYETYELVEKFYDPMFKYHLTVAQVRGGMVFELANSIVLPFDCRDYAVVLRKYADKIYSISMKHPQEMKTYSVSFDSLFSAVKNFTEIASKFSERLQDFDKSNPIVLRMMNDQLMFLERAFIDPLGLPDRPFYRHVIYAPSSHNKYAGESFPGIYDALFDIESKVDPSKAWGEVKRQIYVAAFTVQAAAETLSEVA
Numbered stars: 1 amine (or outer) side, 2 acyl side, 3 side chain; on linkers, the order of the positions; unused ones are H or OH. Bridge positions count the residues as written; N and C are the ends. Square brackets hold non-standard residues; d marks the D form. Side chains are listed from the residue outwards. Peptide text beside a SMILES is read from it. * marks the point of attachment. TtdsdLys(DOTA)NH2 = NC(=O)[C@@H](CCCCNC(=O)CN1CCN(CC(=O)O)CCN(CC(=O)O)CCN(CC(=O)O)CC1)NC(=O)CCC(=O)NCCCOCCOCCOCCCN*; X2 = O=C(O)CN1CCN(CC(=O)O)CCN([C@H](CCC(=O)*)C(=O)O)CCN(CC(=O)O)CC1; DOTA = O=C(O)CN1CCN(CC(=O)O)CCN(CC(=O)*)CCN(CC(=O)O)CC1; Phe(3-Cl) = N[C@@H](Cc1cccc(Cl)c1)C(=O)O; Phe(4-Cl) = N[C@@H](Cc1ccc(Cl)cc1)C(=O)O; X1 = O=C(CC1CCN([*:1])CC1)[*:2]; Tle = CC(C)(C)[C@H](N)C(=O)O; AEEA = NCCOCCOCC(=O)O; Aib = CC(C)(N)C(=O)O; CH2 = C([*:1])[*:2]

compound: CC(=O)N[C@H](C(=O)NC(C)(C)C(=O)N[C@@H](Cc1cccc(Cl)c1)C(=O)N[C@H]1CSSC[C@@H](C(=O)N[C@H](C(=O)N[C@H](C(N)=O)[C@@H](C)O)C(C)(C)C)NC(=O)[C@H](CC(N)=O)NC(=O)[C@H](CCCCNC(=O)COCCOCCNC(=O)CC[C@H](C(=O)O)N2CCN(CC(=O)O)CCN(CC(=O)O)CCN(CC(=O)O)CC2)NC(=O)[C@H](CCCNC(=N)N)NC(=O)[C@H](CCCCN)NC1=O)[C@@H](C)O [PSM-0301] (Ac-T[Aib][Phe(3-Cl)]CKRK([AEEA-X2])NC[Tle]T-NH2; disulfide 4-9)
IC50: < 200 nM

compound: CC(=O)N[C@H](C(=O)N[C@@H](C)C(=O)N[C@@H](Cc1ccccc1)C(=O)N[C@H]1CSSC[C@@H](C(=O)N[C@@H](CC(C)C)C(=O)N[C@H](C(=O)N[C@@H](CC(=O)O)C(=O)NCCCOCCOCCOCCCNC(=O)CCC(=O)N[C@H](CCCCNC(=O)CN2CCN(CC(=O)O)CCN(CC(=O)O)CCN(CC(=O)O)CC2)C(N)=O)[C@@H](C)O)NC(=O)[C@H](CC(N)=O)NC(=O)[C@H](C)NC(=O)[C@H](CCCNC(=N)N)NC(=O)[C@H](CCCCN)NC1=O)[C@@H](C)O [PSM-0330] (Ac-TAFCKRANCLTD-{TtdsdLys(DOTA)NH2}; disulfide 4-9)
IC50: 200 to 1260 nM

compound: C[C@@H](O)[C@H](NC(=O)CC1CCN(C(=O)CN2CCN(CC(=O)O)CCN(CC(=O)O)CCN(CC(=O)O)CC2)CC1)C(=O)NC(C)(C)C(=O)N[C@@H](Cc1ccc(Cl)cc1)C(=O)N[C@H]1CSCSC[C@@H](C(=O)N[C@H](C(N)=O)C(C)(C)C)NC(=O)[C@H](CC(N)=O)NC(=O)C(C)(C)NC(=O)[C@H](CCCNC(=N)N)NC(=O)[C@H](CCCCN)NC1=O [PSM-0332] ({DOTA}-[X1]T[Aib][Phe(4-Cl)]CKR[Aib]NC[Tle]-NH2; linker 5-10 via CH2)
IC50: < 200 nM

Continue with the next compound.
Ask: Requested field: IC50. Item: CC(=O)N[C@@H](C)C(=O)N[C@@H](Cc1ccccc1)C(=O)N[C@H]1CSSC[C@@H](C(=O)N[C@@H](CC(C)C)C(=O)N[C@H](C(=O)N[C@@H](CC(=O)O)C(=O)NCCCOCCOCCOCCCNC(=O)CCC(=O)N[C@H](CCCCNC(=O)CN2CCN(CC(=O)O)CCN(CC(=O)O)CCN(CC(=O)O)CC2)C(N)=O)[C@@H](C)O)NC(=O)[C@H](CC(N)=O)NC(=O)[C@H](C)NC(=O)[C@H](CCCNC(=N)N)NC(=O)[C@H](CCCCN)NC1=O [PSM-0299] (Ac-AFCKRANCLTD-{TtdsdLys(DOTA)NH2}; disulfide 3-8)
Reply: 1260 to 3160 nM
